Cited source: paper PMC5650530

# TARGET: PTGR2 (Homo sapiens)
# Sequence (Q8N8N7 whole entry): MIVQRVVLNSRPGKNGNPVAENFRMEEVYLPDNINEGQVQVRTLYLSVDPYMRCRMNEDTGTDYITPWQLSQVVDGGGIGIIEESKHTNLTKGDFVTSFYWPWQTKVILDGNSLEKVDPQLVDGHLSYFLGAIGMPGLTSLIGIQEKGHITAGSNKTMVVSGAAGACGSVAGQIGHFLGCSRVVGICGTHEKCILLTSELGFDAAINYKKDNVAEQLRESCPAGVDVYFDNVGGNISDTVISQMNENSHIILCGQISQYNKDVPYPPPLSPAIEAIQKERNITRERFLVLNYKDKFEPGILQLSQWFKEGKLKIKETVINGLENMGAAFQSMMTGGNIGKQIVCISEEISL
# ASSAY INFO: 15-keto PGE2 substrate assay with recombinant PTGR2 protein
# Assay type: biochemical
# TEST CONDITIONS: read-out: IC50, inhibition of dhk-PGE2 production, 15-keto PGE2 and NADPH, 95% CI 4.4–16 μM
PROPERTY MEASURED: IC50

Q: Form field: reported IC50 of CC(C)CCC(=O)[C@]1(O)C(=O)[C-](C(=O)CC(C)C)C(=O)[C@H]1CCC(C)C.[K+] (stereo partly shown) [KDT501]
Ans: 8.4 µM
